Assay: MultiTox-Fluor Cytotoxicity Assay - LYMP1-003 - Live Cells (AID 962);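 note: cells exposed to compound for 16 hours at 37 °C; cytotoxic hits lower the live-cell protease signal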
Settings: LYMP1-003 lymphoblastoid cells, MultiTox-Fluor live-cell protease fluorescence; series mostly up to 92.2 µM
Active and inactive are the calls of the source. Calls come from the whole dose curve; as a rule, active = well fitted cell-killing curve with a large enough effect; inconclusive = small, poorly fitted or top-dose-only effect; inactive = flat fitted curve, though single readings scatter.
OUTCOME_MEASURE: outcome

1) C=CCc1ccc(OC)c(OC)c1    inactive
2) c1ccc2c(c1)c1cccc3ccc4cccc2c4c31    inactive
3) CCCCC(CC)CN (stereo not drawn)    inactive
4) c1ccc2scnc2c1    inactive
5) Cc1c(N=C=O)cccc1N=C=O    inactive

Query block: Return reported outcome; argument: CC1=CC(C)(C)Nc2ccccc21
Result block: inactive

Query block: Return reported outcome; argument: Nc1ccc(Cl)cc1Cl
Result block: inactive

Query block: Return reported outcome; argument: C[C@H](CCC(=O)O)[C@H]1CC[C@H]2[C@@H]3CC[C@@H]4C[C@H](O)CC[C@]4(C)[C@H]3CC[C@]12C
Result block: inactive

Query block: Return reported outcome; argument: COC(=O)CCCCC(=O)OC
Result block: inactive

Query block: Return reported outcome; argument: Clc1cc(Cl)c(Cl)cc1Cl
Result block: inactive

Query block: Return reported outcome; argument: Nc1ccc(S(=O)(=O)O)cc1
Result block: inactive

Query block: Return reported outcome; argument: ClCCCl
Result block: inactive

Query block: Return reported outcome; argument: COc1c2ccoc2cc2oc(=O)ccc12
Result block: inactive

Query block: Return reported outcome; argument: S=C1NC=NC2N=CNC12 (stereo not drawn)
Result block: inactive

###

Assay: Cell Viability - LYMP2-005 (AID 967);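 note: cells exposed to compound for 24 h at 37 °C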
Conditions: LYMP2-005 lymphoblastoid cell viability; series mostly up to 92.2 µM
Results filed as inconclusive are left out. Activity calls are given as the source filed them. Calls follow the shape of the dose curve; as a rule, active = well fitted cell-killing curve with a large enough effect; inconclusive = small, poorly fitted or top-dose-only effect, or effect the other way; inactive = no such curve, though single readings can be large or run the other way.
Outcomes you can answer with include only these: t (active), f (inactive)

# example entries with known answers
1) CC1=CC(C)(C)Nc2ccccc21    f
2) CC1(C)CC(N=C=O)CC(C)(CN=C=O)C1 (stereo unspecified)    f

Query block: Assay outcome for NC1=NC(S)C2N=CN=C2N1 (stereo unspecified) : what was it?
Result block: t

Query block: Assay outcome for c1ccc2c(c1)c1cccc3ccc4cccc2c4c31 : what was it?
Result block: f

Query block: Assay outcome for O=C(O)c1ccccc1C(c1ccc(O)cc1)c1ccc(O)cc1 : what was it?
Result block: f

Query block: Assay outcome for Cc1ccc(N)c([N+](=O)[O-])c1 : what was it?
Result block: f

Query block: Assay outcome for CCCCC(CC)CN (stereo unspecified) : what was it?
Result block: f

###

Biological target: Dual specificity protein kinase CLK4 (Homo sapiens)
Assay: qHTS Assay for Inhibitors of CDC-like Kinase 4 (ADP-Glo Assay) (AID 1771); note: nearly all actives have a fitted effect of over 70% in size; note: potency is the fitted concentration of half-maximal effect
Details: recombinant CLK4, ADP-Glo luminescence; series mostly up to 80 µM
Inconclusive results are not listed. Calls of active or inactive are those of the source. Calls come from the whole dose curve; as a rule, active = well fitted inhibition curve with a large enough effect; inconclusive = small, poorly fitted or top-dose-only effect; inactive = flat fitted curve, though single readings scatter.
OUTCOME_MEASURE: Potency

1) COc1ccccc1CNc1ccnc(-c2cccnc2)n1    28.2 µM (active)
2) COc1ccccc1-c1ccc2ncnc(N3CCOCC3)c2c1    12.6 µM (active)
3) COc1ccc2[nH]cc(CCNc3ncnc4ccc(-c5ccoc5)cc34)c2c1    0.708 µM (active)
4) COc1ccc(-n2c(=O)c(CCc3ccccc3)nc3cnc(OC)nc32)cc1    inactive
5) COc1cccc(-c2ccc3ncnc(NCc4cnc(C)cn4)c3c2)c1    2.51 µM (active)

Query block: Return reported Potency; argument: c1ccc2c(NCCN3CCOCC3)nc(-c3ccoc3)nc2c1
Result block: inactive

Query block: Return reported Potency; argument: CN(C)c1ccc(-c2nccc(Nc3ccc(F)cc3)n2)cc1
Result block: 14.1 µM (active)

Query block: Return reported Potency; argument: CN1CCN(c2ncnc3ccc(-c4cccc(C#N)c4)cc23)CC1
Result block: 15.8 µM (active)

Query block: Return reported Potency; argument: COc1ccc2[nH]cc(CCNc3ncncc3-c3cccc(C#N)c3)c2c1
Result block: 25.1 µM (active)

Query block: Return reported Potency; argument: CN1CCN(c2ncc3nc(CCc4ccccc4)c(=O)n(CCc4ccccc4)c3n2)CC1
Result block: inactive

Query block: Return reported Potency; argument: COc1ccc(Oc2ncc3nc(-c4ccccc4)c(=O)n(C[C@H]4CCCO4)c3n2)cc1
Result block: inactive
